Assay: Physical stability under Accelerated Aging Conditions (AAC, 40° C./75% RH, 2 days), HT-XRPD
Conditions: AAC 40° C./75% RH, 2 days, re-analyzed by HT-XRPD
REPORTED_PROPERTY: Physical Stability

Before answering, review these 8 worked examples.
COMPOUND	Physical Stability
CC(C)(C)C(=O)O.NC(=NC(=O)c1nc(Cl)c(N)nc1N)NCc1ccccc1	Stable
CCC(=O)O.NC(=NC(=O)c1nc(Cl)c(N)nc1N)NCc1ccccc1 [PRO1]	Unstable
NC(=NC(=O)c1nc(Cl)c(N)nc1N)NCc1ccccc1.O=C(O)CC(=O)O	Stable
NC(=NC(=O)c1nc(Cl)c(N)nc1N)NCc1ccccc1.O=C(O)C[C@H](O)C(=O)O	Stable
NC(=NC(=O)c1nc(Cl)c(N)nc1N)NCc1ccccc1.O=C(O)C=Cc1ccccc1 [CIN2]	Stable
NC(=NC(=O)c1nc(Cl)c(N)nc1N)NCc1ccccc1.O=S(=O)(O)CCS(=O)(=O)O [EDY3]	Stable
NC(=NC(=O)c1nc(Cl)c(N)nc1N)NCc1ccccc1.O=C(O)c1cccnc1	Stable
NC(=NC(=O)c1nc(Cl)c(N)nc1N)NCc1ccccc1.O=C(O)c1cc(O)ccc1O [GEN3]	Unstable

Now, please, on to the next compound.
Request: In one line, give reported Physical Stability of the entry "N=C(NCc1ccccc1)NC(=O)c1nc(Cl)c(N)nc1N.O=C(O)C=CC(=O)O" .
Response: Stable
